Catalogue of compounds with associated pEC50
# Run description: Inhibition of NS5B polymerase in HCV genotype 1b infected in HuH7 cells after 40 hrs by Taqman probe based RT-PCR analysis
Hey, just a heads up that pEC50 is the negative log base 10 of the concentration in molar.

| Structure | Quantitative result |
| --- | --- |
| CNC(=O)c1c(-c2ccc(F)cc2)oc2cc(N(C)S(C)(=O)=O)c(-c3ccc4ccn5c6cccc(F)c6cc5c4n3)cc12 | 8.59 |
| CNC(=O)c1c(-c2ccc(F)cc2)oc2cc(N(C)S(C)(=O)=O)c(-c3ccc4c(n3)-c3cc5c(F)cccc5n3CC4)cc12 | 8.68 |
| CNC(=O)c1c(-c2ccc(F)cc2)oc2cc(N(C)S(C)(=O)=O)c(-c3ccc4c(n3)-c3cc5c(F)cccc5n3CN4)cc12 | 8.74 |
| CNC(=O)c1c(-c2ccc(F)cc2)oc2cc(N(C)S(C)(=O)=O)c(-c3ccc4c(n3)-c3cc5c(F)cccc5n3CCC4)cc12 | 8.72 |
| CNC(=O)c1c(-c2ccc(F)cc2)oc2cc(N(C)S(C)(=O)=O)c(-c3cc4n(c(=O)c3)CCn3c-4cc4c(F)cccc43)cc12 | 8.89 |

(Q) What value of pEC50 has been recorded for this entry: CNC(=O)c1c(-c2ccc(F)cc2)oc2cc(N(C)S(C)(=O)=O)c(-c3ccc4ncn5c6cccc(F)c6cc5c4n3)cc12
(A) 8.85

(Q) Dear colleague, I am looking for the recorded pEC50 of the following compound: CNC(=O)c1c(-c2ccc(F)cc2)oc2cc(N(C)S(C)(=O)=O)c(-c3ccc4c(n3)-c3cc5c(F)cccc5n3CCCC4)cc12
(A) 8.28

(Q) Entry CNC(=O)c1c(-c2ccc(F)cc2)oc2cc(N(C)S(C)(=O)=O)c(-c3ccc4c(n3)-c3cc5c(F)cccc5n3C4)cc12 has what pEC50?
(A) 8.29
